assay: Luminescence activity of ZZ-fused KAZ mutants in crude enzyme solutions; format: biochemical; settings: Table 4; ZZ-fused (pCold-ZZ-P-); 1 μL crude enzyme solution, 1 mM DTT; 1 μg coelenterazine

>  <molecule>
KAZ-A33N: KAZ with single amino acid substitution A33N (protein) FTLADFVGDWQQTAGYNQDQVLEQGGLSSLFQNLGVSVTPIQKVVLSGENGLKADIHVIIPYEGLSGFQMGLIEMIFKVVYPVDDHHFKIILHYGTLVIDGVTPNMIDYFGRPYPGIAVFDGKQITVTGTLWNGNKIYDERLINPDGSLLFRVTINGVTGWRLCENILA

>  <Relative Luminescence Activity (Imax)>
1.0

$$$$
>  <molecule>
KAZ-M75K: KAZ with single amino acid substitution M75K (protein) FTLADFVGDWQQTAGYNQDQVLEQGGLSSLFQALGVSVTPIQKVVLSGENGLKADIHVIIPYEGLSGFQMGLIEKIFKVVYPVDDHHFKIILHYGTLVIDGVTPNMIDYFGRPYPGIAVFDGKQITVTGTLWNGNKIYDERLINPDGSLLFRVTINGVTGWRLCENILA

>  <Relative Luminescence Activity (Imax)>
1.3

$$$$
>  <molecule>
KAZ-Q124K: KAZ with single amino acid substitution Q124K (protein) FTLADFVGDWQQTAGYNQDQVLEQGGLSSLFQALGVSVTPIQKVVLSGENGLKADIHVIIPYEGLSGFQMGLIEMIFKVVYPVDDHHFKIILHYGTLVIDGVTPNMIDYFGRPYPGIAVFDGKKITVTGTLWNGNKIYDERLINPDGSLLFRVTINGVTGWRLCENILA

>  <Relative Luminescence Activity (Imax)>
3.7

$$$$
